Data origin, for the record: PubChem BioAssay (NCI)

experiment: NCI Yeast Anticancer Drug Screen. Data for the bub3 strain (AID 167); conditions: S. cerevisiae bub3 mutant strain, at 50.0 µM, active compounds read high
This is part of a sample that, as a whole, favours compounds with a hit. Of some 79,000 tested, about 15% had one in any assay.
Could you please report measured growth inhibition for the items listed next?
Answers are plain numbers, in %.

>>> recorded_result("NC(=O)NN=C1CSSC1")
77.8
>>> recorded_result("CCCCOP(=O)(OCCCC)C(NS(=O)(=O)c1ccccc1)(C(=O)OCC)C(F)(F)F (stereo not given)")
99.2
>>> recorded_result("Nc1ccc(/C=C/c2ccccc2)cc1")
95.5
>>> recorded_result("NC(N)=N/N=C/c1ccc([N+](=O)[O-])o1")
28.7
>>> recorded_result("Cn1c(-c2ccc(/C=N/NC(N)=NCCCCCCN=C(N)N/N=C/c3ccc(-c4c[n+]5ccccc5n4C)cc3)cc2)c[n+]2ccccc12")
97.3
>>> recorded_result("COc1ccc(C(=O)C(CN2CCCC2)CN2CCCC2)cc1")
59.5
>>> recorded_result("COC(=O)c1cc(-c2ccccc2)[nH]c(=O)c1C#N")
-24.7
>>> recorded_result("O=c1[nH]c(=S)[nH]c(-c2ccccc2)c1Cc1c(O)ccc2ccccc12")
80.8

Hello, I would appreciate it if you could give growth inhibition for each entry below.
1. CCCCCCC(O)C(CO)CCCCC (stereo not given)
2. CCCCCCC(=O)OCc1ccc(-c2ccccc2)cc1
3. O[C@H]1[C@H]2c3cc4c(cc3CN3CCC(=C[C@@H]1O)[C@H]23)OCO4
4. N#Cc1cc2cccn2c2c1cnn2-c1ccccc1
5. COC1(OC)CNC(C(=O)O)C1 (stereo not given)
6. C/C=C/CC(C/C=C/C)C1CC[N-]CC1.C/C=C/CC(C/C=C/C)C1CC[N-]CC1.[Cl][Pt+2]([Cl])([Cl])[Cl]

Marked response:
[98.2, 99.2, 91.2, -46.9, 21.4, 98]

Hello, I would appreciate it if you could give growth inhibition for each entry below.
1. CCCCCCCCCCCCCCOC(=O)C(N)Cc1ccc(O)cc1 (stereo not given)
2. COc1cc(OC)c(SSCCCCS(=O)O)c(OC)c1
3. O=C1OC(=O)C2C3CCC(C3=C3CCCCC3)C12 (stereo not given)

Marked response:
1. 98.5
2. -26.2
3. 10.8

Hello, I would appreciate it if you could give growth inhibition for each entry below.
1. C[CH2][Sn]([CH2]C)([O]C(=O)c1c(F)cccc1F)[O][Sn]([CH2]C)([CH2]C)[O]C(=O)c1c(F)cccc1F
2. O=C(Cn1cnc2ccc([N+](=O)[O-])cc21)N1CCN(c2ccccc2)CC1
3. N#CC1C(=O)SC2c3ccccc3C(=O)c3ccccc3C12 (stereo not given)
4. NNC(=S)NN/C=C(\C=Nc1ccccc1)[N+](=O)[O-]
5. CS(=O)(=O)OCCCN(CCCOS(C)(=O)=O)c1ccc(C=Nc2ccc(-c3csc(COc4ccc(Br)cc4Br)n3)cc2)cc1
6. Cc1[nH]c2ccccc2c1/C=C1\C(=O)C2CCC1C2 (stereo not given)
7. CC1=C(/C=C/C(C)=N/NC(N)=S)C(C)(C)CCC1

Marked response:
78.5
-15.4
32.8
75.1
89.2
39
80.1

Hello, I would appreciate it if you could give growth inhibition for each entry below.
1. CCCCCCCCC1CCNCC1
2. Cc1ccc(S(=O)(=O)Oc2ccc3oc4c(CO)ccc(NCCN(C)C)c4c(=O)c3c2)cc1
3. CC1CC[N-]CC1.CC1CC[N-]CC1.CC1CC[N-]CC1.CC1CC[N-]CC1.CS(C)=O.CS(C)=O.[Cl-].[Cl-].[Cl-].[Cl-].[Pt+4].[Rh+3]
4. CCOC(=O)/C(Cl)=C(\OCC)C(=O)OCC
5. CN(C)CCCNc1ccc(O)c2sc3ccccc3c(=O)c12

Marked response:
90.3
-9.25
97.9
26.4
24.4

Hello, I would appreciate it if you could give growth inhibition for each entry below.
1. Oc1ccc(-c2ccccc2)cc1Br
2. c1cc[c]([Sn]([S]c2cccc3cccnc23)([S]c2cccc3cccnc23)[c]2ccccc2)cc1
3. O=C(O)Cc1ccccc1CCc1ccccc1Cl
4. Cc1cc(Cl)c2c(c1)C(=N/O)/C(=C\c1ccco1)O2
5. Cc1ccc(C2SCc3nc4ccccc4n32)cc1 (stereo not given)

Marked response:
[99.5, 95.9, 77.1, 89, 70.4]

Hello, I would appreciate it if you could give growth inhibition for each entry below.
1. c1cc(NC2CCCCC2)ccc1CN1CCOCC1
2. CC#CS(=O)(=O)c1ccccc1

Marked response:
[68.2, 6.35]

Hello, I would appreciate it if you could give growth inhibition for each entry below.
1. COC(=O)C(C#N)=C(SC)SC
2. OC(c1cc2ccccc2o1)c1cc2ccccc2s1 (stereo not given)
3. CCOP(=O)(CCCOc1cc(Cl)c(Cl)cc1Cl)OCC
4. CC(=O)O[C@H]1CC[C@]2(C)C3=CC[C@]4(C)[C@@H](C(C)=O)CC[C@H]4[C@@]34C=C[C@]2(C1)C1C(=O)OC(=O)C14 (stereo not given in full)
5. CCN(CC)CCOc1ccc(/C(C#N)=C/c2ccc(C(F)(F)F)cc2)cc1
6. Cc1nc(N2N=C(c3ccc(Cl)cc3)CCC2=O)sc1[N+](=O)[O-]
7. CCOC(C)c1ccccc1 (stereo not given)
8. CC(C)(CN1CCCCC1)C(=O)CC(SCCS(=O)(=O)O)c1ccc(Cl)cc1 (stereo not given)

Marked response:
[98.9, 78.7, 94.2, 56.9, 54.1, 84, -0.8, 25.6]

The value of growth inhibition measured for the compound O=C(NCCCCCNC(=O)C12CC3CC(CC(C3)C1)C2)C12CC3CC(CC(C3)C1)C2 turned out to be 1.75

----------
test: NCI Yeast Anticancer Drug Screen. Data for the mec2-1 strain (AID 157); settings: S. cerevisiae mec2-1 strain, at 50.0 µM (retest, dose inferred, filed as 5.0), active compounds read high
This is part of a sample that, as a whole, favours compounds with a hit. Of some 79,000 tested, about 15% had one in any assay.
Could you please report measured growth inhibition for the items listed next?
Numbers only, in %.

Worked set:
>>> recorded_result("Cn1cc(C2=CC(=O)C=CC2=O)c2ccccc21")
99
>>> recorded_result("CCCCCCCCCCCCCCCCCCn1[se]c2ccccc2c1=O")
16
>>> recorded_result("CN(C)CCCNc1ccc(O)c2sc3ccccc3c(=O)c12")
33
>>> recorded_result("CC(=O)O[C@H]1CC[C@]2(C)C3=CC[C@]4(C)[C@@H](C(C)=O)CC[C@H]4[C@@]34C=C[C@]2(C1)C1C(=O)OC(=O)C14 (stereo partly specified)")
6

Hello, I would appreciate it if you could give growth inhibition for each entry below.
1. O=[N+]([O-])c1ccc(N=Nc2ccc(O)cc2O)cc1
2. Clc1ccc(N=Cc2c3ccccc3cc3ccccc23)c(Cl)c1
3. O=Nc1c(-c2cccc([N+](=O)[O-])c2)nc2cnccn12

Marked response:
1: 98; 2: 2; 3: 99

Hello, I would appreciate it if you could give growth inhibition for each entry below.
1. C/C(=N\NC(=S)N1CCN(c2ccccn2)CC1)c1ccccn1
2. CN(C)c1cccc(F)c1C(=O)NC(=O)Nc1ccc(Cl)cc1
3. CCCCCCC(C)c1ccccc1O (stereo unspecified) (tested in a mixture with another compound)
4. CC(=O)OCC1OC(OC(C)=O)C(On2nnc3c(-c4ccccc4)c(C)nn32)C(OC(C)=O)C1OC(C)=O (stereo unspecified)
5. CC(C(=O)O)c1cn(Cc2ccccc2)c2ccccc12 (stereo unspecified)
6. CCCCCCCCCCCCCCCC[N+](C)(CCO)Cc1cnc[nH]1 (stereo unspecified)
7. CCCN=Cc1cnc(C#N)c(N)n1
8. CCOC1(OCC)Oc2c(Cl)c(Cl)c(Cl)c(Cl)c2OC1(OCC)OCC

Marked response:
1. 100
2. 4
3. 100
4. 71
5. 58
6. 99
7. 0
8. 98

Hello, I would appreciate it if you could give growth inhibition for each entry below.
1. ON=C1c2ccccc2-c2ccccc21
2. CCC(CC)COC(=O)C(C)=O
3. CCC1(C)CCC2(C)C(CCC3C4(C)CCCC32OC4=O)C1 (stereo unspecified)
4. Cc1c2ccnc(C(N)=O)c2c(C)c2c1[nH]c1ccccc12
5. O=[N+]([O-])c1ccc(Cl)cc1C=NC12CC3CC(CC(C3)C1)C2
6. CC(C)/C=N/N(CCOC(=O)Nc1ccccc1)C(=O)Nc1ccccc1
7. OC(c1cc2ccccc2o1)c1cc2ccccc2s1 (stereo unspecified)
8. O=C1CCCCCC1Cc1cc(O)c(CC2CCCCCC2=O)cc1O (stereo unspecified)

Marked response:
1: 21; 2: 0; 3: 96; 4: 98; 5: 13; 6: -12; 7: 94; 8: 34

Hello, I would appreciate it if you could give growth inhibition for each entry below.
1. CCCCCCCCCCCCCCCCCO
2. COC(=O)/C=C1/Nc2ccc(Cl)cc2C(=O)NC1=O
3. CNC(=O)OC(C)CN1c2ccccc2Sc2ccccc21 (stereo unspecified)

Marked response:
[-7, 45, 98]
